Taken from patent US20180258158A1.

Biological target: T1, human serum albumin (HSA), full length (human, UniProt P02768 25-609)
T1 construct: mature; Immobilized on CM5 chip (SPR) or coated on plates (ELISA)
T1 sequence (P02768 25-609): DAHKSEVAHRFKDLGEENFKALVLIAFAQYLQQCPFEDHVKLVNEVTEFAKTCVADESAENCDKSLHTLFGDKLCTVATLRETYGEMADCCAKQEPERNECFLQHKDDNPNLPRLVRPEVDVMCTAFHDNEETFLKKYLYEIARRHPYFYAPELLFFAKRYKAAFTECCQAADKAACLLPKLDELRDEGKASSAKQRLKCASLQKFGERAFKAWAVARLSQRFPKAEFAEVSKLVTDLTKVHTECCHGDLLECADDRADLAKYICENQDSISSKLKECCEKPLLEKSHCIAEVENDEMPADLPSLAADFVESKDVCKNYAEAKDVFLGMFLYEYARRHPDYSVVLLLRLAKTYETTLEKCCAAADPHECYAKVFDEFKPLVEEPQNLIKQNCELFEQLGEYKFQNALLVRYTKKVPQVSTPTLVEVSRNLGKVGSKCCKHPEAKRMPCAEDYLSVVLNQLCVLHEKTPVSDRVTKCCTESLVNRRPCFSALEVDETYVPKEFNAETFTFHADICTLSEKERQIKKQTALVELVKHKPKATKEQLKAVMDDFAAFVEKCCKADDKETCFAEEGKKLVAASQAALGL
Test: SPR off-rate, immobilized HSA, 500 nM Adnectin, 25 C
Give measured koff for each item. Keep answers brief.
Kindly provide the numeric value in s⁻¹ only, without the unit symbol.

Would you mind telling me what koff value was observed for ADX_6727_F06 (L41A/K85T) (designed binder, Full His6-tagged entry) MGVSDVPRDLEVVAATPTSLLISWDAPAVTVRYYRITYGREVQKYSDLGPAYIYQEFTVPGSKSTATISGLKPGVDYTITVYAVTGSGESPASSTPISINYRTEIDKPSQHHHHHH ?
0.00298

Would you mind telling me what koff value was observed for ADX_6727_D10 (Q33D/K85T) (designed binder, Full His6-tagged entry) MGVSDVPRDLEVVAATPTSLLISWDAPAVTVRYYRITYGREVDKYSDLGPLYIYQEFTVPGSKSTATISGLKPGVDYTITVYAVTGSGESPASSTPISINYRTEIDKPSQHHHHHH ?
0.0134
